test_method_notes: Stability in simulated gastric fluid
Assay type: in vitro ADME
recorded_conditions: 2 μM peptidomimetic, simulated gastric fluid pH 1.5, 37° C., 24 h
Non-standard residues stand in square brackets, D forms with d. Residues, ends and D or L forms follow the SMILES beside them. ξ: configuration not given here. *: point of attachment. Leu(5,5,5,5',5',5'-F6) = N[C@@H](CC(C(F)(F)F)C(F)(F)F)C(=O)O; X4 = CCc1cc(OC)ccc1-c1ccc(CC(CNC(CCCc2ccccc2F)C(N)=O)N*)cc1; ξαMePhe(2-F) = CC(N)(Cc1ccccc1F)C(=O)O; aThr = C[C@H](O)[C@H](N)C(=O)O; Aib = CC(C)(N)C(=O)O
endpoint_label: % degradation of peptidomimetics in 24 h when incubated with simulated gastric fluid (%)
Numbers only, in %.

Examples with answers:
| compound | result_value |
| --- | --- |
| CCc1cc(OC)ccc1-c1ccc(CC(CNC(CCCc2ccccc2F)C(N)=O)NC(=O)[C@H](CC(=O)O)NC(=O)[C@H](CO)NC(=O)[C@@H](NC(=O)C(C)(Cc2ccccc2F)NC(=O)[C@@H](NC(=O)CNC(=O)[C@H](CC(C(F)(F)F)C(F)(F)F)NC(=O)C(C)(C)NC(=O)[C@@H](N)Cc2c[nH]cn2)[C@H](C)O)[C@H](C)O)cc1 (stereo partly drawn) [compound 214] (H-H[Aib][Leu(5,5,5,5',5',5'-F6)]G[aThr][ξαMePhe(2-F)][aThr]SD-X4) | 100 |
| CCc1cc(OC)ccc1-c1ccc(CC(CNC(CCCc2ccccc2)C(N)=O)NC[C@H](CC(=O)O)NC(=O)[C@H](CO)NC(=O)[C@@H](NC(=O)C(C)(Cc2ccccc2F)NC(=O)[C@@H](NC(=O)CNC(=O)[C@H](CCC(N)=O)NC(=O)C(C)(C)NC(=O)[C@H](Cc2c[nH]cn2)NC(=O)OC)[C@H](C)O)[C@H](C)O)cc1 (single isomer, unassigned) [compound 198] | 49 |

Q. Please indicate % degradation of peptidomimetics in 24 h when incubated with simulated gastric fluid recorded for CCc1cc(OC)ccc1-c1ccc(CC(NC(=O)[C@H](CC(=O)O)NC(=O)[C@H](CO)NC(=O)[C@@H](NC(=O)C(C)(Cc2ccccc2F)NC(=O)[C@@H](NC(=O)CNC(=O)C(CCC#N)NC(=O)C(C)(C)NC(=O)[C@@H](N)Cc2c[nH]cn2)[C@H](C)O)[C@H](C)O)C(=O)NC(CCCc2ccccc2)C(N)=O)cc1 (single isomer, unassigned) [compound 114]
A. 52

The reported measurements were obtained from patent US8883963B2.
